- TARGET OF ASSAY: T1, Human CD98 ECD with C-terminal His-tag (human, UniProt P08195 105-529)
- T1 construct: also called huCD98 ECD; recombinant human CD98 extracellular domain
- T1 sequence: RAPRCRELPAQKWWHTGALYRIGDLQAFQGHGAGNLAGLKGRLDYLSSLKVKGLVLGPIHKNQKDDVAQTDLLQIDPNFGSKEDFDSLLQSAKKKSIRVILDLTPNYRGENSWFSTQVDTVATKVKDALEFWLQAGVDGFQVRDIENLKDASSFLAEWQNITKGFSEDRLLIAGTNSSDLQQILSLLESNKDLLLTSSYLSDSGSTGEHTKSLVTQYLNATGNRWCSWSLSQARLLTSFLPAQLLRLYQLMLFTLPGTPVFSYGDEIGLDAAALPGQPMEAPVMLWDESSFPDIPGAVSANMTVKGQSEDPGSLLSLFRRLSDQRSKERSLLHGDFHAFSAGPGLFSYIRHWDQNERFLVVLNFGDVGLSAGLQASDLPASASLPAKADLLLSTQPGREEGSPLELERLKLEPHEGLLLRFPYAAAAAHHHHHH
- TEST NAME: SPR Biacore, anti-Fc capture of mAb, CD98 ECD analyte
Catalogue of kon readings, one per entry.
OBSERVABLE: kon (M⁻¹ s⁻¹)

1. Anti-CD98 rat hybridoma antibody Ab15 (antibody, V domains shown) VH: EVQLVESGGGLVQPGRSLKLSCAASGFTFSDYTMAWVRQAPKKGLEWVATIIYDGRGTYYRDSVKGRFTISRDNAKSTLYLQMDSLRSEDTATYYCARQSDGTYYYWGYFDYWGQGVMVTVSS VL: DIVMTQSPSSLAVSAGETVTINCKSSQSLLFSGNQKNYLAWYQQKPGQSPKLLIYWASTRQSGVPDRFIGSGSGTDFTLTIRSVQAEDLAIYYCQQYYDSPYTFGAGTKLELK | 77000
2. Anti-CD98 rat hybridoma antibody Ab11 (antibody, V domains shown) VH: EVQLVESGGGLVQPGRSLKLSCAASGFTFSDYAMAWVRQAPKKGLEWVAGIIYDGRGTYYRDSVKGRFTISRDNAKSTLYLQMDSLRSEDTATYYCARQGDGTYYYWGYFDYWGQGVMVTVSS VL: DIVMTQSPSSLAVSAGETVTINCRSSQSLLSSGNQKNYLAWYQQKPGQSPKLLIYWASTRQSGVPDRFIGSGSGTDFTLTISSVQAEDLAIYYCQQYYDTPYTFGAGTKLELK | 65000
3. Anti-CD98 murine hybridoma antibody Ab3 (antibody, V domains shown) VH: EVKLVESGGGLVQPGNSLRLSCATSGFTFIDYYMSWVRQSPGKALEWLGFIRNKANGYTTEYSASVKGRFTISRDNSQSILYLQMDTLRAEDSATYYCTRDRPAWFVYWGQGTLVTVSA VL: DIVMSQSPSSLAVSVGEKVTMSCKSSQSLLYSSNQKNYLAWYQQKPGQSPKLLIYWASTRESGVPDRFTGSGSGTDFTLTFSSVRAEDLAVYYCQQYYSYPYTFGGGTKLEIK | 200000
